# Tested on: CYP2D6
# Assay name: PBPK model: CYP2D6-mediated metabolism (Km, kcat, contribution)
# Set-up: species or system human
# Assay context: Assumed equal to Km of CYP2D6-mediated hydroxylation of (E)-4-OH-Clom, adapted with fu,inc=0.243; read-out: CYP2D6 Km → undef., assumed
Measured parameter: Km (µM)
Give just the numeric value; µM need not be written.

Km lookup needed for CCNCCOc1ccc(/C(=C(/Cl)c2ccccc2)c2ccc(O)cc2)cc1 [(E)-4-OH-DE-Clom, (E)-4-hydroxy-N-desethylclomiphene] , thanks.
8.86

---

# Tested on: CYP2D6
# Assay name: In vitro scaling factors from CYP2D6 activity score-specific in vitro metabolite formation rates
# Assay type: in vitro ADME, human
# Assay context: AS=1; mean value assumed
# Excerpt: Here, kcat, AS=i represents the catalytic rate constant for CYP2D6 AS = i, kcat, AS=2 is the catalytic rate constant for the NM population and IVSFi is the corresponding in vitro scaling factor (IVSF). S2. Drug-Gene-Interaction (DGI) Modeling S2.1. CYP2D6 in vitro Scaling Factors […]
Measured parameter: IVSF, CYP2D6-mediated pathway → undef.
Just the number, please.

Below are worked cases with known answers.
CCN(CC)CCOc1ccc(/C(=C(/Cl)c2ccccc2)c2ccccc2)cc1 [(E)-Clom, (E)-clomiphene, reference compound]
0.51
CCNCCOc1ccc(/C(=C(/Cl)c2ccccc2)c2ccc(O)cc2)cc1 [(E)-4-OH-DE-Clom, (E)-4-hydroxy-N-desethylclomiphene]
0.51
CCN(CC)CCOc1ccc(/C(=C(/Cl)c2ccccc2)c2ccc(O)cc2)cc1 [(E)-4-OH-Clom, (E)-4-hydroxyclomiphene]
0.51

IVSF, CYP2D6-mediated pathway → undef. lookup needed for CCNCCOc1ccc(/C(=C(/Cl)c2ccccc2)c2ccccc2)cc1 [(E)-DE-Clom, (E)-N-desethylclomiphene] , thanks.
0.51

Sourced from paper PMC9781104
